# reported PBM E-score; entries follow
Molecular target: Pdr3 (UniProt P33200)
Sequence: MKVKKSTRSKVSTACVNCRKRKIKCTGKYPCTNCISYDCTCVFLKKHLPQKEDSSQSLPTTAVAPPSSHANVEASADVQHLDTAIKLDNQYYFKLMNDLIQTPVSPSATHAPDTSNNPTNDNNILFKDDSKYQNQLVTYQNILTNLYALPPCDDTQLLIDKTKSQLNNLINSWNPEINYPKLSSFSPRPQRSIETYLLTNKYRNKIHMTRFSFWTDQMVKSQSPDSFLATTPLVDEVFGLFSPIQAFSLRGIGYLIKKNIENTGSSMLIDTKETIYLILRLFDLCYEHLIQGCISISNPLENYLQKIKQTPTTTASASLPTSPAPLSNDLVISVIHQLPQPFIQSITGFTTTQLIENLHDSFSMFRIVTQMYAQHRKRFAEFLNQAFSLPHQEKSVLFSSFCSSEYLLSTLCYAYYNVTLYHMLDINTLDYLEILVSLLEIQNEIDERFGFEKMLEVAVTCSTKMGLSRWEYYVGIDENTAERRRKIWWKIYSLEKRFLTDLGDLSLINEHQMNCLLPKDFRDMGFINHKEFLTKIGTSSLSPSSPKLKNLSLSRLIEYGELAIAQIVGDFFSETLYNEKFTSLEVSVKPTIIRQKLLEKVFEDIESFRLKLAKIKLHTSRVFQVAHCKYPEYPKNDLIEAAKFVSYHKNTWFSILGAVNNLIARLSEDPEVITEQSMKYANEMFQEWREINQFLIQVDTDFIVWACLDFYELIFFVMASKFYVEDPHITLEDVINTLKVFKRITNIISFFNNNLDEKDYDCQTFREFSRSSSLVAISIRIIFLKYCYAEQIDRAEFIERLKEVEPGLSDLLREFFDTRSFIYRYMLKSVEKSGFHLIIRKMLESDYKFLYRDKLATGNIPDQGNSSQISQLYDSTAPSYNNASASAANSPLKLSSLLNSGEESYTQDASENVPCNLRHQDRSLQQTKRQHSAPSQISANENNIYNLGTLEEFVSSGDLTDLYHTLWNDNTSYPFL
Assay: PBM E-score (8-mer binding enrichment) (E-score (-0.5 to 0.5)); higher = stronger / more preferred TF binding
Settings: protein concentration: 200 nM; construct: GST-full length
In all, about 33,000 sequences were measured (“E-score (-0.5 to 0.5)”: median about -0.035, highest 2% from about 0.35 on). The entries come from a sample that favours the highest values as a whole.
Answer as a number with no unit attached.

>>> quantitative_readout("CTCCGGAC")
0.382

Item `ACTACGGA` was tested on Pdr3 (UniProt P33200); the reported PBM E-score is 0.362

Item `GGCGGGGA` ; assay system Pdr3 (UniProt P33200); PBM E-score reported as 0.292

====

Molecular target: Pdr3 (UniProt P33200)
Sequence: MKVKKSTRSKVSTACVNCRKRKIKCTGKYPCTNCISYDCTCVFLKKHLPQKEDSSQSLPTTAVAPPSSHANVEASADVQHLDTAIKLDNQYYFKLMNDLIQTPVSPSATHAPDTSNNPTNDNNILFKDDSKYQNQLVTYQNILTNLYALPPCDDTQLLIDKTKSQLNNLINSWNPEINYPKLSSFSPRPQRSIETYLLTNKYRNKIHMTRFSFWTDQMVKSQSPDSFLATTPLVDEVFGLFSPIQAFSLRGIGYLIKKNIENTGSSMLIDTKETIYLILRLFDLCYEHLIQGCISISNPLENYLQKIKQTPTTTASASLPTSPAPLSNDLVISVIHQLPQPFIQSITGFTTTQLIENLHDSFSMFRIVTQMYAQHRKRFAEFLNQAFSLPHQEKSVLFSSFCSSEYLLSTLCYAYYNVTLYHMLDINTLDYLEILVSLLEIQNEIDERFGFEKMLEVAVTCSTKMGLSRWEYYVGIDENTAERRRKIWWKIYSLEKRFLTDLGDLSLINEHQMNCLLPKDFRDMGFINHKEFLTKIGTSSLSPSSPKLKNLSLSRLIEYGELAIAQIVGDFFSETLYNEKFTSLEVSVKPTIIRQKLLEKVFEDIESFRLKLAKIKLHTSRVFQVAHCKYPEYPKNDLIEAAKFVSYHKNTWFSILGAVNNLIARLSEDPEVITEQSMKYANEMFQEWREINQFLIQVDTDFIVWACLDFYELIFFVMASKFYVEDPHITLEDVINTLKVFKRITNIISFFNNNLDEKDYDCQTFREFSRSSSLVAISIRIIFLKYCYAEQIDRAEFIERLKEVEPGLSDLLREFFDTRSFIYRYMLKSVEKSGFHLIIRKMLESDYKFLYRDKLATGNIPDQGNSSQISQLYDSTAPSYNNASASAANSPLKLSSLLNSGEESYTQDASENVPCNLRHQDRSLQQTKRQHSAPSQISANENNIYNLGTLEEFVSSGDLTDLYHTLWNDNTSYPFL
Experiment: PBM E-score (8-mer binding enrichment) (E-score (-0.5 to 0.5)); higher = stronger / more preferred TF binding
Conditions: protein concentration: 200 nM; construct: GST-full length
Whole data set: some 33,000 sequences, median “E-score (-0.5 to 0.5)” near -0.035, cut for the highest 2% near 0.35. The sample holds the highest values, similar sequences and a random draw of the others, so the mix is not that of the screen.
Kind request: treat 0.2 as inclusive, so PBM E-score at 0.2 or higher is rule met, anything lower is rule not met.

>>> assigned_class("CATCCCGA")
"rule met"
>>> assigned_class("GAGACTCC")
"rule not met"
>>> assigned_class("ACCGGAAA")
"rule met"
>>> assigned_class("CCCGGAGC")
"rule met"
>>> assigned_class("CTGAACTC")
"rule not met"
>>> assigned_class("AGCCTTTA")
"rule not met"

Query: Assess whether reported PBM E-score for `AGGAACAG` sits at 0.2 or higher.
Reply: rule not met

====

Target: Pdr3 (UniProt P33200)
Sequence: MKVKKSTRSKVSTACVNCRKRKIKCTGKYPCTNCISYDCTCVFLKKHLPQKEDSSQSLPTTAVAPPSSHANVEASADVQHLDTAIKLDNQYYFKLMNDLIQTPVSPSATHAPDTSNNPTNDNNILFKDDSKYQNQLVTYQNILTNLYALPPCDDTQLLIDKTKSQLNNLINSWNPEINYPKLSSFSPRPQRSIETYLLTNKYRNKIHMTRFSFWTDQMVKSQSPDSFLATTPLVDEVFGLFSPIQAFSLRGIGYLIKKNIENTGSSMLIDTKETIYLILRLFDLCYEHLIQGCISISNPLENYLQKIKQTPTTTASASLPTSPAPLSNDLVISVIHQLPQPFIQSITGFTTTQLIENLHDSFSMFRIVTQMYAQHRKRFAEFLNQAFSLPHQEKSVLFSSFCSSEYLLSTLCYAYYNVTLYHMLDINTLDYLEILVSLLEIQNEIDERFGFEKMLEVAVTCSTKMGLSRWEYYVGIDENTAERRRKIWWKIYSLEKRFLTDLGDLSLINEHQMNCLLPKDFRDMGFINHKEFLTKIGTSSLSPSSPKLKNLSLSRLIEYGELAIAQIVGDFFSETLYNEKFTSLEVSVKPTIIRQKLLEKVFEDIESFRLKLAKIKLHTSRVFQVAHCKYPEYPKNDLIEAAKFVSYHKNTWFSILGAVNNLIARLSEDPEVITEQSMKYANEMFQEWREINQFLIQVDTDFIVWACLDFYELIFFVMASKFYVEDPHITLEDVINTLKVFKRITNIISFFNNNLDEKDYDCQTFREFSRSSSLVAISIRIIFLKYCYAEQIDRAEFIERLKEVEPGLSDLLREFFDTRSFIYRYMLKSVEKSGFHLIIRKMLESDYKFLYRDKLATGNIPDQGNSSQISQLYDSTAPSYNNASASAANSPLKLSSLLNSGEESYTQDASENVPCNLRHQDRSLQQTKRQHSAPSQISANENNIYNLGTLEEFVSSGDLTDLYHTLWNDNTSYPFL
Assay: PBM E-score (8-mer binding enrichment) (E-score (-0.5 to 0.5)); higher = stronger / more preferred TF binding
Details: protein concentration: 200 nM; construct: GST-full length
Over roughly 33,000 sequences, “E-score (-0.5 to 0.5)” has its median near -0.035; the highest 2% begin near 0.35. The entries come from a sample that favours the highest values as a whole.
outcome-measure: PBM E-score

Sample records with PBM E-score:
>>> result("CCCAGGGG")
-0.115
>>> result("AGCCGGTA")
0.199
>>> result("CACCCGTC")
0.215
>>> result("ATAAGCAA")
-0.128
>>> result("CAGTTCCC")
0.342

// PBM E-score lookup, sequence = `ATCCTGGC` , result: -0.0357

In plain terms, `CCCACGGC` has a documented PBM E-score of 0.0935

Value of measured PBM E-score for the entry `ACCGGCGC` : 0.228

Quick note, PBM E-score for `AATGTTAT` landed at 0.00821

According to the records, this sequence `TGCCGTAA` displays PBM E-score of -0.187

Kindly note the recorded PBM E-score for `CAGTTCCG` , which is 0.473

response.value for `CAGTTCCA` (field: PBM E-score) = -0.0348
